Data origin: patent US9346809B2

- Test system: TYK2 (aa 871-1187, catalytic domain, GST-tag) (Homo sapiens, UniProt P29597)
- Construct: JAK1 (aa 850-1154) and TYK2 (aa 871-1187) are expressed with an N-terminally fused GST-tag; GST (N); purchased Carna Biosciences, Inc; host or cells: baculovirus expression system
- Sequence (P29597 871-1187): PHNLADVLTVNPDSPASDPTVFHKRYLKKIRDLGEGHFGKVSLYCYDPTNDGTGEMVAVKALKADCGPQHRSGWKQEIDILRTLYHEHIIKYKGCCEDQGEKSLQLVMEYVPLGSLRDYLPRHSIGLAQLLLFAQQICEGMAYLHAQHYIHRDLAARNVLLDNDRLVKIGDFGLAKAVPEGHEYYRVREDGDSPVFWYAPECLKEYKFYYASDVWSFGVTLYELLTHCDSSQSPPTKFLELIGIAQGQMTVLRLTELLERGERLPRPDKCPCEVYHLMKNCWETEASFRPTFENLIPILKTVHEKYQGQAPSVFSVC
- Experiment description: JAK kinase assay (HTRF, phosphorylation of TK substrate-biotin), TYK2
- Type: biochemical
- Experimental context: HTRF assay, ATP at Km (13 μM); read-out: TYK2 kinase inhibitory activity (EC50 indicator)
# EC50 per entry

A selection of reference data follows.
- Compound: "NS(=O)(=O)c1ccc(OCC(=O)N2CCN(c3ncnc4[nH]ccc34)CC23CC3)cc1"
  Observed: "< 100 nM"
- Compound: "O=C(c1cccs1)N1CCN(c2ncnc3[nH]ccc23)CC12CC2"
  Observed: "100 to 500 nM"
- Compound: "O=C(c1ccc2[nH]ccc2c1)N1[C@@H]2CC[C@H]1CN(c1ncnc3[nH]ccc13)C2"
  Observed: "100 to 500 nM"

Prompt: So what does the record say about EC50 for `O=C(c1ccccc1)N1CCN(c2ccnc3[nH]ccc23)CC12CC2` ?
Response: > 500 nM

Prompt: So what does the record say about EC50 for `Cc1cc(S(N)(=O)=O)ccc1OCC(=O)N1CCN(c2ncnc3[nH]ccc23)CC12CC2` ?
Response: < 100 nM

Prompt: So what does the record say about EC50 for `N#CCCCC(=O)N1CCN(c2ncnc3[nH]cc(Cl)c23)CC12CC2` ?
Response: > 500 nM

Prompt: So what does the record say about EC50 for `COc1cnc2[nH]ccc2c1N1CCN(C(=O)CCCC#N)C2(CC2)C1` ?
Response: 100 to 500 nM

Prompt: So what does the record say about EC50 for `O=C(c1cccc(OC(F)(F)F)c1)N1CCN(c2ccnc3[nH]ccc23)CC12CC2` ?
Response: > 500 nM
